system: Sam68 (KHDRBS1); test: Sam68 small-molecule binders, primary screen, biochemical, small-molecule microarray, 635 nm fluorescence (AID 1125); conditions: small-molecule microarray binding, higher = more signal;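 also: score merges 667 nm channel intensity with signal to noise over triplicate slides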
The reader will find reported composite z-score values listed item by item below.

{"molecule": "Cc1ccc(S[C@]2(C(=O)NCc3ccccc3)CC(=O)N(Cc3ccccc3Cl)[C@@H]2c2ccc(CO)cc2)cc1", "composite z-score": 0.472}
{"molecule": "O=C1O[C@@H](c2ccccc2)[C@@H](c2ccccc2)N2[C@@H](c3ccccc3OCCO)[C@]3(C(=O)Nc4ccc(C#CC5(O)CCCCCC5)cc43)[C@@H](C(=O)N3CCCCCCC3)[C@H]12", "composite z-score": 1.33}
{"molecule": "CC(C)N1C(=O)[C@@]2(Cc3ccccc31)c1ccccc1C(=O)N(Cc1ccccc1)[C@H]2c1ccc(CO)cc1", "composite z-score": 0.316}
{"molecule": "COc1ccc(C(=O)Nc2ccc(CN3C(=O)[C@@]4(O[C@@H](CC(=O)N(CCO)Cc5ccccc5)[C@H]([Si](C)(C)c5ccc(OC)cc5)[C@H]4C)c4ccccc43)cc2)cc1", "composite z-score": 0.0422}
{"molecule": "CCOC(=O)C[C@H]1[C@H](OC(=O)c2cc3ccccc3oc2=O)[C@@H](NC(=O)c2ccc(-c3ccccc3)cc2)c2cc(OCCCO)ccc2N1C(=O)Cc1ccc(OC)cc1", "composite z-score": 0.864}
{"molecule": "COCCOC(=O)N1C(=O)[C@@]2(c3cc(C#CCNC(N)=O)ccc31)[C@H](c1ccc(O)cc1)N1[C@H](c3ccccc3)[C@H](c3ccccc3)OC(=O)[C@H]1[C@@H]2C(=O)N1CCc2cc(OC)c(OC)cc2C1", "composite z-score": 1.21}
{"molecule": "C=CCNC(=O)[C@@H]1[C@H]2C(=O)O[C@H](c3ccccc3)[C@H](c3ccccc3)N2[C@H](c2ccc(OCCO)cc2)[C@@]12C(=O)Nc1ccc(C#CC3=CCCCC3)cc12", "composite z-score": 1.3}
{"molecule": "COCCOC(=O)N1C(=O)[C@@]2(c3cc(C#CCCO)ccc31)[C@H](C(=O)N1CCN(c3ncccn3)CC1)[C@H]1C(=O)O[C@H](c3ccccc3)[C@H](c3ccccc3)N1[C@@H]2c1ccc(OCCO)cc1", "composite z-score": 1.29}
{"molecule": "COCCOC(=O)N1C(=O)[C@@]2(c3cc(C#CCNC(N)=O)ccc31)[C@H](c1ccccc1OCCO)N1[C@H](c3ccccc3)[C@H](c3ccccc3)OC(=O)[C@H]1[C@@H]2C(=O)N1CCCCCCC1", "composite z-score": 1.32}
{"molecule": "CCOC(=O)C1=CC[C@@H](c2ccccc2)N(S(=O)(=O)c2ccc(C)cc2)[C@@H]1C#N", "composite z-score": 1.23}
{"molecule": "O=C1O[C@H](c2ccccc2)[C@H](c2ccccc2)N2[C@H]1[C@@H](C(=O)N1CCN(c3ncccn3)CC1)[C@]1(C(=O)Nc3ccc(C#CC4(O)CCCCCC4)cc31)[C@H]2c1ccc(O)cc1", "composite z-score": 1.31}
{"molecule": "[N-]=[N+]=NCc1ccccc1[C@H]1OC(c2ccc(OCCCO)cc2)=N[C@@]1(Cc1ccccc1N=[N+]=[N-])C(=O)O", "composite z-score": 1.33}
{"molecule": "COc1c(C)cc(-c2cc3c(c(CCc4ccccc4)n2)[Si](C(C)C)(C(C)C)O[C@H]3c2ccccc2)cc1C", "composite z-score": -0.423}
{"molecule": "CC1CC/C=C\\[C@H]2OC34C=CCN(CCN5CCOCC5)C(=O)[C@H]3N(C(CO)C(C)C)C(=O)[C@@H]4C2C(=O)O1 (stereo partly drawn)", "composite z-score": 0.889}
{"molecule": "C=C(C(=O)CC[C@@H](OC(=O)c1ccccc1-c1ccccc1C(=O)O)c1ccc(OCCO)cc1)C(C)C", "composite z-score": 0.929}
{"molecule": "CC(=O)NCCCC[C@@H]1NC(=O)[C@H]2C[C@@H](C(=O)NCCCCCN)[C@@H](c3ccc(O)cc3)N2C1=O", "composite z-score": 1.21}
{"molecule": "N#Cc1ccc(NN2C(C(O)c3ccc(B(O)O)cc3)C=CC3CN(c4ccccc4)C(=O)C32)cc1 (stereo not drawn)", "composite z-score": 0.141}
{"molecule": "CCCCC=C[C@@H](NC(=O)C(C)(C)C)c1ccccc1", "composite z-score": 1.09}
{"molecule": "CCOC(=O)C1=C[C@@H](C(C)(C)C)N(S(=O)(=O)c2ccc(C)cc2)[C@H]1c1ccc(OC)cc1", "composite z-score": 1.3}
{"molecule": "COc1cc2c(cc1OC)CN(C(=O)[C@@H]1[C@H]3C(=O)O[C@H](c4ccccc4)[C@H](c4ccccc4)N3[C@H](c3ccc(O)cc3)[C@@]13C(=O)Nc1ccc(C#CC4=CCCCC4)cc13)CC2", "composite z-score": 1.3}
{"molecule": "[N-]=[N+]=NCc1ccccc1C[C@@]1(C(=O)NCCN2CCOCC2)N=C(c2ccc(OCCCO)cc2)O[C@@H]1c1ccccc1", "composite z-score": 1.19}
{"molecule": "COc1ccc(NN2C(C(O)c3ccccc3)C=CC3C(=O)N(C4CCCCC4)C(=O)C32)cc1 (stereo not drawn)", "composite z-score": 1.32}
{"molecule": "COCCOC(=O)N1C(=O)[C@@]2(c3cc(C#CC4=CCCCC4)ccc31)[C@H](c1ccc(O)cc1)N1[C@H](c3ccccc3)[C@H](c3ccccc3)OC(=O)[C@H]1[C@@H]2C(=O)N1CCc2cc(OC)c(OC)cc2C1", "composite z-score": 1.28}

Provenance of the data: PubChem BioAssay
